The reported measurements were obtained from ChEMBL document CHEMBL5247667.

experiment: Metabolic stability in human liver S9 fraction assessed as half life at 1 uM incubated for 60 min by LC-MS/MS method; format: ADME, subcellular
MEASURED ATTRIBUTE: log10 half-life at 1 µM (log10 of the value in min)
Please keep in mind that the values are log10 of half-life at 1 µM expressed in min.

In plain terms, CC(=O)OCCCC(C)C(=O)O[C@@H]1CC[C@@]2(C)[C@@H](CC[C@@H]3[C@@H]2CC[C@]2(C)[C@@H](C(C)=O)CC[C@@H]32)C1 (stereo partly specified) has a documented log10 half-life at 1 µM of -0.05

Note to self: log10 half-life at 1 µM recorded for CC(=O)[C@H]1CC[C@H]2[C@@H]3CC[C@H]4C[C@H](OC(=O)OCCN(C)C(=O)C(C)C)CC[C@]4(C)[C@H]3CC[C@]12C was 0.63

log10 half-life at 1 µM in this record for CC(=O)[C@H]1CC[C@H]2[C@@H]3CC[C@H]4C[C@H](OC(=O)NCCOC(=O)C(C)C)CC[C@]4(C)[C@H]3CC[C@]12C : -0.22

GET /value?item= CC(=O)OCCCC(=O)O[C@@H]1CC[C@@]2(C)[C@@H](CC[C@@H]3[C@@H]2CC[C@]2(C)[C@@H](C(C)=O)CC[C@@H]32)C1 &field=log10 half-life at 1 µM returns -0.05

Record COC(=O)N(C)CCOC(=O)O[C@@H]1CC[C@@]2(C)[C@@H](CC[C@@H]3[C@@H]2CC[C@]2(C)[C@@H](C(C)=O)CC[C@@H]32)C1 . Reported log10 half-life at 1 µM: -0.15

Looking up CCCCCC(=O)O[C@@H]1CC[C@@]2(C)[C@@H](CC[C@@H]3[C@@H]2CC[C@]2(C)[C@@H](C(C)=O)CC[C@@H]32)C1 , I see its log10 half-life at 1 µM listed as 1.36
